tested on: A375 cells (parental); assay: Kinase inhibitor library screening, PrestoBlue cell viability, 1 or 10 μM, 72 h; details: A375 Parental; 1μΜ; 72 h
Criterion: cell viability (kinase inhibitor library screening) strictly less than 60%. Met: Condition met. Not met: Condition not met.

[
  {
    "compound": "OCCn1cc(-c2cnc3nnn(Cc4ccc5ncccc5c4)c3n2)cn1 [PF-04217903]",
    "answer-label": "Condition not met"
  },
  {
    "compound": "Nc1ncnc2c1c(-c1cnc3[nH]ccc3c1)nn2C1CCCC1 [PP-121, reference compound]",
    "answer-label": "Condition met"
  },
  {
    "compound": "CNC(=O)c1cc(Oc2ccc(NC(=O)Nc3cc(C(C)(C)C)nn3-c3ccc4ncccc4c3)c(F)c2)ccn1 [DCC-2036 (Rebastinib)]",
    "answer-label": "Condition met"
  },
  {
    "compound": "CC(=O)c1c(C)c2cnc(Nc3ccc(N4CCNCC4)cn3)nc2n(C2CCCC2)c1=O.Cl [PD 0332991 (Palbociclib) HCl]",
    "answer-label": "Condition not met"
  },
  {
    "compound": "O=C(Nc1c[nH]nc1-c1nc2ccc(CN3CCOCC3)cc2[nH]1)NC1CC1 [AT9283]",
    "answer-label": "Condition met"
  },
  {
    "compound": "Cn1cc(-c2ccc3nnc(C(F)(F)c4ccc5ncccc5c4)n3n2)cn1 [JNJ-38877605]",
    "answer-label": "Condition not met"
  },
  {
    "compound": "Cc1cc(Nc2cc(N3CCN(C)CC3)nc(Sc3ccc(NC(=O)C4CC4)cc3)n2)n[nH]1 [VX-680 (MK-0457, Tozasertib)]",
    "answer-label": "Condition met"
  },
  {
    "compound": "O=C(O)[C@]1(Cc2cccc(Nc3nccs3)n2)CC[C@@H](Oc2cccc(Cl)c2F)CC1 [MK-5108 (VX-689)]",
    "answer-label": "Condition not met"
  },
  {
    "compound": "CCN1CCN(C(=O)Cc2ccc(Nc3ncc(F)c(Nc4ccc(C(=O)Nc5ccccc5Cl)cc4)n3)cc2)CC1 [Aurora A Inhibitor I]",
    "answer-label": "Condition not met"
  },
  {
    "compound": "CCS(=O)(=O)Nc1ccc2c(c1)/C(=C(/Nc1ccc(CN3CCCCC3)cc1)c1ccccc1)C(=O)N2 [Hesperadin, reference compound]",
    "answer-label": "Condition met"
  },
  {
    "compound": "COc1ccc2c(Oc3ccc(NC(=O)c4c(C)n(CC(C)(C)O)n(-c5ccccc5)c4=O)nc3)ccnc2c1 [AMG458]",
    "answer-label": "Condition not met"
  },
  {
    "compound": "CC(C)CC(=O)Nc1[nH]nc2c1CN(C(=O)C1CCN(C)CC1)C2(C)C [PHA-793887, reference compound]",
    "answer-label": "Condition met"
  },
  {
    "compound": "CN1CCN(C2CCN(C(=O)Nc3cc(Oc4ccc(NC(=O)C5(C(=O)Nc6ccc(F)cc6)CC5)c(F)c4)ccn3)CC2)CC1 [Golvatinib (E7050)]",
    "answer-label": "Condition not met"
  },
  {
    "compound": "COc1cc2c(Oc3ccc(NC(=O)C4(C(=O)Nc5ccc(F)cc5)CC4)cc3F)ccnc2cc1OCCCN1CCOCC1 [Foretinib (GSK1363089, XL880)]",
    "answer-label": "Condition not met"
  },
  {
    "compound": "COc1cc2c(Nc3ccc(NC(=O)c4ccccc4)cc3)ncnc2cc1OCCCN1CCOCC1 [ZM-447439]",
    "answer-label": "Condition not met"
  },
  {
    "compound": "Cc1cnc(NC(=O)Nc2cc(Br)c(C)cc2OC[C@@H]2CNCCO2)cn1 [LY2603618 (IC-83)]",
    "answer-label": "Condition not met"
  },
  {
    "compound": "CC(C)NC[C@@H](C(=O)N1CCN(c2ncnc3c2[C@H](C)C[C@H]3O)CC1)c1ccc(Cl)cc1 [GDC-0068]",
    "answer-label": "Condition not met"
  },
  {
    "compound": "CCS(=O)(=O)c1cccc(-c2cc(C(=O)NC3CCN(C)CC3)c(C)c3[nH]c4ncc(C)cc4c23)c1 [TAK-901, reference compound]",
    "answer-label": "Condition met"
  },
  {
    "compound": "CNC(=O)c1ccc(-c2cnc3ncc(Cc4ccc5ncccc5c4)n3n2)cc1F [INCB28060]",
    "answer-label": "Condition not met"
  },
  {
    "compound": "CNC(=O)c1cc(Oc2ccc(NC(=O)Nc3ccc(Cl)c(C(F)(F)F)c3)c(F)c2)ccn1 [Regorafenib (BAY 73-4506)]",
    "answer-label": "Condition not met"
  },
  {
    "compound": "O=C(Nc1cccc(Cl)c1)Nc1ncc(CCNc2ncnc3ccsc23)s1 [SNS-314]",
    "answer-label": "Condition met"
  },
  {
    "compound": "O=C(O)c1ccc(Nc2ncc3c(n2)-c2ccc(Cl)cc2C(c2c(F)cccc2F)=NC3)cc1 [MLN8054]",
    "answer-label": "Condition not met"
  },
  {
    "compound": "Cn1cc(-c2ccc3nnc(Sc4ccc5ncccc5c4)n3n2)cn1 [SGX-523]",
    "answer-label": "Condition not met"
  },
  {
    "compound": "Cc1nc(N)sc1-c1ccnc(Nc2ccc(N3CCOCC3)cc2)n1 [CYC116]",
    "answer-label": "Condition met"
  },
  {
    "compound": "Cc1[nH]c(/C=C2\\C(=O)Nc3ccc(S(=O)(=O)Cc4c(Cl)cccc4Cl)cc32)c(C)c1C(=O)N1CCC[C@@H]1CN1CCCC1 [PHA-665752]",
    "answer-label": "Condition not met"
  },
  {
    "compound": "CO[C@@H](C(=O)N1Cc2n[nH]c(NC(=O)c3ccc(N4CCN(C)CC4)cc3)c2C1)c1ccccc1 [Danusertib (PHA-739358)]",
    "answer-label": "Condition met"
  }
]
